- Tested on: KM12
- PROTOCOL DESCRIPTION: NCI tumour cell line growth inhibition, 48 h
Calls of active or inactive are those of the source. Rule as the data show it: active = GI50 up to about 1.1 µM and inactive = higher.
RECORDED METRIC: GI50

> print(dat)
                                   compound  recorded.metric       measurement
1  C#CCCCC(=C)C[C@H](OCc1ccccc1)[C@H]1OC(=O)[C@@H]1C             GI50  39 µM (inactive)

*Q* Would you kindly share the measured GI50 for O=C1C(S(=O)(=O)c2ccccc2)=C(CS(=O)(=O)c2ccccc2)[C@@H](OCc2ccccc2)[C@@H]1OCc1ccccc1 ?
*A* 0.0519 µM (active)

*Q* Recorded GI50 for COc1ccc2c(c1)[n+]([O-])c(/C(C)=N/NC(N)=S)c(C)[n+]2[O-] , please?
*A* > 85.9 µM (inactive)

*Q* Data request, read-out GI50, for COc1ccc(NC(=O)C(=O)C(CC2C(=O)NC(=S)NC2=O)C(=O)c2ccc3ccccc3c2)c([N+](=O)[O-])c1 (stereo unspecified)
*A* > 100 µM (inactive)

*Q* Which value of GI50 has been reported for O=c1o[nH]/c(=N/c2ccccc2)n1-c1ccccc1 in the records?
*A* > 100 µM (inactive)

*Q* Name the recorded GI50 for Cc1c(C(=O)/C=C/c2ccco2)[n+]([O-])c2ccccc2[n+]1[O-] .
*A* > 100 µM (inactive)
